Exercise: state measured CAA/HuS MIC for each of the molecules provided.
test system: P. aeruginosa; assay: MIC, modified CLSI broth microdilution in CAA medium without or with […] human serum (Table 4); format: cell-based, Pseudomonas aeruginosa; conditions: CAA supplemented with […] human serum; note: CAA supplemented with 2.5% human serum
Reply with just the number (in mg/mL).

For the molecule GN357: lysin-AMP construct: TAGGTAGG linker and RR12Whydro C-terminal to GN316 lysin (SEQ ID NO: 38) (protein) MAILKIGSKGLEVKNLQTSLNKIGFNLVADGIFGKATDNAVRAVQAGAGLVVDGIAGPKTMYAIRNAGESHQDHLTEADLIDAARELSVDLASIKAVNQVESRGTGFTKSGKIKTLFERHIMYKKLNAKFGQAKANALAQLYPTLVNAKAGGYTGGDAELERLHGAIAIDKDCAYESASYGLFQIMGFNCVICGYDNAEEMFNDFLTGERAQLMAFVKFIKADANLWKALKDKNWAEFARRYNGPAYAQNQYDTKLAAAYKSFSTAGGTAGGRRLIRLWLRLLR , what CAA/HuS MIC is on record?
0.25

What do we get for GN218: lysin-AMP construct: IGEM linker and RI12 antimicrobial peptide C-terminal to GN37 lysin (SEQ ID NO: 10) (protein) MTYTLSKRSLDNLKGVHPDLVAVVHRAIQLTPVDFAVIEGLRSVSRQKELVAAGASKTMNSRHLTGHAVDLAAYVNGIRWDWPLYDAIAVAVKAAAKELGVAIVWGGDWTTFKDGPHFELDRSKYGGGSGGGGSGGGSRLKKIGKVLKWI ?
1

Origin of the recorded values: patent US20210324359A1
